SYSTEM: human CaSR (Homo sapiens, UniProt P41180)
Sequence (P41180 20-1078): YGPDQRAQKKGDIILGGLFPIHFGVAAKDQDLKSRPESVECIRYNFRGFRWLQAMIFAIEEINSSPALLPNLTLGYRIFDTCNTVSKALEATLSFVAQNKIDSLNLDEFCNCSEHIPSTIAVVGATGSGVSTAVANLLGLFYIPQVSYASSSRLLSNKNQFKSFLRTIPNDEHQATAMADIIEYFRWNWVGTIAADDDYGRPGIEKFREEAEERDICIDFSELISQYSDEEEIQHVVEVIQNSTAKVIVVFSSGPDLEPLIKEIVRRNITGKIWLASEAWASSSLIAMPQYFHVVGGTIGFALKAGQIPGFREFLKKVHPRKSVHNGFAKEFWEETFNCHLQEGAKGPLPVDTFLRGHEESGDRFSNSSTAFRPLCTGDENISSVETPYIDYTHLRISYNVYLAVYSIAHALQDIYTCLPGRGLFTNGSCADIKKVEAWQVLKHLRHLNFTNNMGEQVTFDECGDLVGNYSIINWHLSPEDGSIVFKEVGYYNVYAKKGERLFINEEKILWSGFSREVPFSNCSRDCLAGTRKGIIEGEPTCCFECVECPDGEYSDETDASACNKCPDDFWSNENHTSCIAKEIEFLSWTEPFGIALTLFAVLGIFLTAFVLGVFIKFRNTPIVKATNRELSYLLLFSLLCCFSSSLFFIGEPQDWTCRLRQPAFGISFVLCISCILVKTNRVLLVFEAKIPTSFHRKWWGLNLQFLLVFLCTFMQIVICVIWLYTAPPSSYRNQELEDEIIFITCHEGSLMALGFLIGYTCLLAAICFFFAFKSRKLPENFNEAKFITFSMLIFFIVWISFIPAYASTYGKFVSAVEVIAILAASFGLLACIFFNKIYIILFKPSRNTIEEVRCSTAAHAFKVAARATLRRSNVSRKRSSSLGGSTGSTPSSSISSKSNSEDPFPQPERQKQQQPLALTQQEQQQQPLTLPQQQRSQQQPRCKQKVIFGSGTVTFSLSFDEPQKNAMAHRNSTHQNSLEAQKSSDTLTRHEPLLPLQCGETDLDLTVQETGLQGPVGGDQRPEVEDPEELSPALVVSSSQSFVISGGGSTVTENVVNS
TEST_DETAILS: CaSR FLIPR assay (calcilytic activity)
Format: cell-based
Design: expressed in transfected cells
TEST_CONTEXT: HEK293 cells stably expressing human recombinant CaSR; 1 mM CaCl2 agonist; Tables 1-24; read-out: FLIPR ASSAY IC50
Recorded log10 IC50, one value per entry.
# values: log10(IC50), units µM

Completed entries (count: 5):
MOLECULE	MEASURED_NUMBER
C[C@@H](OC[C@H](O)CNC(C)(C)Cc1ccc2c(c1)CCC2)c1cccc2c1[C@@H]1[C@H](C2)[C@H]1C(=O)O	-1.06
CSc1ccc(CC(C)(C)NC[C@@H](O)CO[C@H](C)c2cccc3c2O[C@@H]2[C@@H](C(=O)O)[C@H]32)cc1F	-0.78
CSc1ccc(CC(C)(C)NC[C@@H](O)CO[C@H](C)c2ccc(C)c3c2C2[C@H](O3)[C@H]2C(=O)O)cc1F (stereo partly drawn)	-1.68
C[C@@H](OC[C@H](O)CNC(C)(C)CCSc1ccccc1)c1cccc2c1O[C@@H]1[C@@H](C(=O)O)[C@H]21	-0.48
Cc1ccc([C@@H](C)OC[C@H](O)CNC(C)(C)Cc2ccc(Cl)c(F)c2)c2c1O[C@@H]1[C@@H](C(=O)O)[C@H]21	-1.23

Enquiry: Find log10 IC50 for Cc1ccc([C@@H](C)OC[C@H](O)CNC(C)(C)Cc2ccc(Cl)cc2Cl)c2c1O[C@H]1[C@H](C(=O)O)[C@@H]21 on human CaSR (Homo sapiens, UniProt P41180) and write it down.
Return: -1.11

Origin of values: patent US20160311791A1
